Please provide measured TGI for the entries that follow.
system: TK-10 renal; test: NCI tumour cell line growth inhibition, 48 h
Numbers only, in µM.

Illustrative cases are given below, each with its answer.
>>> reported_measurement("CC(C)(C)OC(=O)NCCCC(=O)NC1(c2cc3ccccc3s2)CCCCC1")
97.2
>>> reported_measurement("COC(=O)C12OCC34C(CC5C(C)C6=CC(=O)OC6=CC5(C)C3C(O)C1O)OC(=O)C(O)C24 (stereo not drawn)")
58.2
>>> reported_measurement("N#CC1(C#N)C2C=CC(c3coc4cccc2c34)C1(C#N)C#N (stereo not drawn)")
18.6
>>> reported_measurement("CC(CN(C)C)Oc1ccccc1NC1=C(Cl)C(=O)C(Nc2ccccc2OC(C)CN(C)C)=C(Cl)C1=O (stereo not drawn)")
0.974
>>> reported_measurement("CCc1ccc(C(=Nc2ccc(N(C)C(=O)CN3CCN(C)CC3)cc2)c2c(O)[nH]c3ccc(C(=O)OC)cc23)cc1")
2.11

Hi there! I need TGI for each item below, if you can.
1. Fc1cccc(-n2ccc(-c3ccccc3)nc2=S)c1
2. COc1ccc2c(c1)C(=O)/C(=C/c1ccc([N+](=O)[O-])o1)O2

1. 36
2. 2.59

----------
system: SF-539 CNS; test: NCI tumour cell line growth inhibition, 48 h; in the data active = GI50 below about 0.43 µM; inactive = the rest
Would you mind answering with one of these outcomes? active, inactive

>>> group("O=C1c2ccccc2-c2c1c1c(O)cccc1n2Cc1ccccn1")
"inactive"
>>> group("COc1cc(-c2csc(NC(=O)Nc3ccc(C(F)(F)F)cc3)n2)cc(OC)c1OC")
"inactive"

I would be grateful if you could indicate the recorded call for `O=[N+]([O-])c1cc(C(F)(F)F)ccc1Sc1ccc(C(F)(F)F)cc1[N+](=O)[O-]` .
inactive

State the result this test recorded for `O=C1/C(=C/c2ccc(Cl)cc2)CCC/C1=C\c1ccc(Cl)cc1` .
inactive

I'd appreciate the recorded outcome for `Cc1ccc(NC(=O)CSc2nnc3n(Cc4ccccc4)c(=O)c4c(C)c(C(N)=O)sc4n23)cc1` from this test.
inactive

# fetch the recorded call for `O=C1C=CC(=O)N1c1cccc(N2C(=O)C=CC2=O)c1` here
inactive

I would be grateful if you could indicate the recorded call for C=C1C(=O)O[C@H]2[C@H]1CC/C(COC(=O)C(C)c1ccc(CC(C)C)cc1)=C\CC[C@@]1(C)O[C@@H]21 (some centres not stated) .
inactive

Which outcome was assigned to `CC1(C)NCCC[C@]2(C)[C@H]3CC[C@@H]4[C@H]5[C@H](C(=O)/C=C/c6ccccn6)CC[C@]5(CO)CC[C@@]4(C)[C@]3(C)CC[C@@H]12` in this test?
inactive

// outcome(item) with item = `O=C(O)c1c(=O)cccc2ssc12`
inactive

// outcome(item) with item = `N#Cc1c(N)nc(N2CCOCC2)c(C#N)c1-c1ccccn1`
inactive

----------
tested on: RPMI-8226 leukemia; assay: NCI tumour cell line growth inhibition, 48 h
READOUT_KIND: GI50

For orientation, consider the following solved cases.
>>> reported_measurement("NS(=O)(=O)CC1CC[CH-]CC1.[Cl-].[Cl-].[Cl-].[Cl-].[Cl-].[Sb+5].c1ccncc1")
"> 100 µM"
>>> reported_measurement("CC(=O)O[C@H](C[C@H](C(C)C)N(C)C(=O)[C@@H](NC(=O)[C@H]1CCCN1C)C(C)C)c1nc(C(=O)N[C@@H](Cc2ccccc2)C[C@H](C)C(=O)O)c(C)s1")
"< 0.00167 µM"
>>> reported_measurement("CCOC(=O)C#Cc1c(C(=O)OCC)nnn1Cc1ccc([N+](=O)[O-])cc1")
"2.8 µM"

Okay, next one:
// recorded GI50 for `Fc1cccc(-n2ccc(-c3ccccc3)nc2=S)c1` : 47.1 µM

----------
Hi there, I'd appreciate the recorded TGI for every entry that follows.
test system: ACHN renal; experiment: NCI tumour cell line growth inhibition, 48 h
Answers are plain numbers, in µM.

>>> reported_measurement("COc1cc(/C=C\\c2nnc(/C=C\\c3ccc(O)c(OC)c3)s2)ccc1O")
22.3

Now for the compound whose TGI we want.
// TGI value for `Cc1ccc2c(ccc(/C=C\c3cc(C)c4cccnc4c3O)[n+]2C)c1` : 20.4

----------
system: MDA-MB-231 breast; test: NCI tumour cell line growth inhibition, 48 h
Provide the recorded TGI for the entries that follow.
Give bare numbers, in µM.

Completed entries (count: 6):
>>> reported_measurement("O=C(NNC(=S)NCc1ccccc1)c1csc(NC(=S)NC2CCCCC2)n1")
83.3
>>> reported_measurement("O=C(/C=C/C12c3ccccc3C(c3ccccc31)C1C(=O)NC(=O)C12)c1ccc(F)cc1 (stereo unspecified)")
9.58
>>> reported_measurement("CN(Cc1cc(Br)cc(Br)c1O)Cc1c(O)ccc2ccccc12")
35.6
>>> reported_measurement("OCCNc1nc(Nc2ccc(Cl)c(Cl)c2)nc2ccccc12")
5.4
>>> reported_measurement("CC(NC(=O)c1ccc(NP(=O)(OCc2ccc([N+](=O)[O-])o2)N(C)CCCCCl)cc1)c1ccc(OCC2CCCCC2)c(C(N)=O)c1 (stereo unspecified)")
35
>>> reported_measurement("CSC1=NNC(SC)=NN1")
0.458

Hello, I would appreciate it if you could give TGI for each entry below.
1. CO/N=C(\COc1ccc2oc(-c3ccccc3)cc(=O)c2c1)c1ccc(OC)cc1
2. CC([C@H]1CCC2C3CCC4C[C@@H](N)CC[C@]4(C)C3CC[C@@]21C)N(C)C (stereo partly specified)
3. Clc1ccccc1CNc1c2ccccc2nc2ccccc12
4. Cc1cc(N2CCOCC2)nc(N(CCCNc2ccnc3cc(Cl)ccc23)Cc2ccco2)n1

[45.2, 16.5, 10.2, 13.4]

For each of the items listed, what is its TGI?
1. CCCCCCCCCNC(=O)/C=C/c1ccc(O)c(O)c1
2. CCN(CCCl)c1cc(CN(C)C)cc(NC(=O)C23CCC(C(=O)Nc4cc(CN(C)C)cc(N(CC)CCCl)c4)(CC2)CC3)c1
3. CCCCCCCCCCCCCCCCOP(=O)(O)OCC(NC(C)=O)C(=O)O (stereo unspecified)
4. CC(=O)O[C@@]12CO[C@@H]1C[C@@H](O)[C@@]1(C)C(=O)[C@H](O)C3=C(C)[C@@H](OC(=O)[C@H](O)[C@@H](NC(=O)c4ccccc4)c4ccccc4)C[C@@](O)([C@@H](OC(=O)c4ccccc4)C12)C3(C)C (stereo partly specified)
5. C[N+](C)(C)c1cc2c(nn1)Nc1ccccc1S2

1. 34.7
2. 26.6
3. 93.2
4. 43.8
5. 67

----------
I'd appreciate it if you could supply TGI values for the items below.
system: SN12C renal; test: NCI tumour cell line growth inhibition, 48 h
Where a SMILES comes first, the peptide text is derived from it. [ ]: non-standard residue; d: D form. ξ: configuration not given here. ξLac(3-iPr) = CC(C)CC(O)C(=O)O; NMeV = CN[CH](C(=O)O)C(C)C; NMeA = CN[CH](C)C(=O)O; βAla = NCCC(=O)O

>>> reported_measurement("O=c1[nH]c(=O)n(C2CC(O)C(CO)O2)c2nc3ccc4cc5ccccc5cc4c3nc12 (stereo not drawn)")
"> 100 µM"
>>> reported_measurement("CCC(C)C1NC(=O)C2CCCN2C(=O)C(CC(C)C)OC(=O)CCNC(=O)C(C)N(C)C(=O)C(C(C)C)N(C)C1=O (stereo not drawn) (cyclo([ξLac(3-iPr)]PI[NMeV][NMeA][βAla]); configuration not given here)")
"> 100 µM"

// next entry
For the compound C[N+](C)(C)CC(=O)N/N=C(\C(=O)NC1=C(Cl)C(=O)c2ccccc2C1=O)C(C#N)c1nc(-c2ccc([N+](=O)[O-])cc2)cs1 (stereo not drawn) , the measured TGI on SN12C renal was 28.2 µM

----------
tested on: MOLT-4 leukemia; experiment: NCI tumour cell line growth inhibition, 48 h
Where a SMILES comes first, the peptide text is derived from it. [ ]: non-standard residue; d: D form. The star is where a group is joined. dTle = CC(C)(C)[C@@H](N)C(=O)O; 4Abz = Nc1ccc(C(=O)O)cc1; NHOH = ON*
Exercise: state measured GI50 for each of the molecules provided.

The cases that follow already have their GI50 on record.
>>> reported_measurement("COc1cc(-c2csc(NC(=O)Nc3ccc(C(F)(F)F)cc3)n2)cc(OC)c1OC")
"1.85 µM"
>>> reported_measurement("CCCN(CCC)c1ccc(/C=N/NC(=O)c2cccnc2)c(OC)c1")
"22.8 µM"
>>> reported_measurement("CCCCCCCCCNC(=O)/C=C/c1ccc(O)c(O)c1")
"0.474 µM"
>>> reported_measurement("CC(=[N-])N1CCC[C@@H](Nc2c3ccccc3nc3ccccc23)C1.[Cl][Pt].[NH-]CCC[NH-]")
"0.359 µM"
>>> reported_measurement("CC(=O)[CH-]C(=O)c1ccccc1.CC(=O)[CH-]C(=O)c1ccccc1.Cc1cc([O-])ccc1Cl.Cc1cc([O-])ccc1Cl.[Ti+4]")
"15.5 µM"
>>> reported_measurement("O=[N+]([O-])c1cc(C(F)(F)F)ccc1Sc1ccc(C(F)(F)F)cc1[N+](=O)[O-]")
"3.92 µM"
>>> reported_measurement("CCC(=O)Nc1ccc(C)c(-c2ccc(C(=O)NCC3CC3)cc2)c1")
"> 25 µM"
>>> reported_measurement("O=C(Nc1cccc(-c2ccc(Cl)c(C(F)(F)F)c2)c1)C1CCN(Cc2cccc3cccnc23)CC1")
"1.79 µM"
>>> reported_measurement("OCCNc1nc(Nc2ccc(Cl)c(Cl)c2)nc2ccccc12")
"1.87 µM"
>>> reported_measurement("N#Cc1c(N)nc(N2CCOCC2)c(C#N)c1-c1ccccn1")
"> 100 µM"

Could I get GI50 for every one of these entries?
1. CCN(CC)C(=S)SCN1C(=O)c2ccccc2S1(=O)=O
2. C[C@@H](NC(=O)[C@H](NC(=O)[C@@H]1CCCN1C(=O)CNC(=O)c1ccc(N)cc1)C(C)(C)C)C(=O)NO (H-[4Abz]GP[dTle][dA]-{NHOH})
3. CC(CN(C)C)Oc1ccccc1NC1=C(Cl)C(=O)C(Nc2ccccc2OC(C)CN(C)C)=C(Cl)C1=O (centres undefined)
4. CCOC(=O)C1=C(C)N(Cc2ccc(Cl)cc2Cl)C2(O)C=CC(=O)C3=C(O)c4ccccc4C(=O)C312 (centres undefined)

1. 23.9 µM
2. > 100 µM
3. 0.195 µM
4. 3.87 µM
